Tested on: PK1 neuroblastoma cells exposed to TPrP
Test: cells
Type: cell-based
Details: PK-1, 96 h, read-out: TPrP EC50
Measured EC50, listed per entry for reference.
Field: numeric (nM). Do not append units.

query: Report EC50 for `CC(=O)c1cccc(Nc2nnc(Cc3ccncc3)c3ccccc23)c1` please.
result: 15

query: Entry `O=S(=O)(c1cccc(Nc2nnc(Cc3ccncc3)c3ccccc23)c1)N1CC2CCC(C1)O2` please
result: 6

query: Entry `CC(=O)c1cccc(Nc2nnc(Cc3ccnc(C)c3)c3ccccc23)c1` please
result: 70

query: Entry `O=S(=O)(c1ccc(Nc2nnc(Cc3ccncc3)c3ccccc23)cc1)N1CCOCC1` please
result: 5

query: Entry `c1ccc2oc(CNc3nnc(Cc4ccncc4)c4ccccc34)cc2c1` please
result: 2

query: Entry `c1cc(Nc2nnc(Cc3ccncc3)c3ccccc23)cc(C2COC2)c1` please
result: 10

====

Tested on: PK1 neuroblastoma cells exposed to TPrP
Experiment: cells
Assay type: cell-based
Settings: PK-1, 96 h, read-out: TPrP EC50
Define the label as True when EC50 is strictly less than 60 nM and as False in all remaining cases.

query: For this compound, is EC50 lower than 60 nM? `c1ccc2c(NCC3CCOCC3)nnc(Cc3ccncc3)c2c1`
result: True

query: Entry `Cc1ccc2nc(Nc3nnc(Cc4ccncc4)c4ccccc34)oc2c1` please
result: True

query: Entry `Fc1cccc2oc(Nc3nnc(Cc4ccncc4)c4ccccc34)nc12` please
result: True

query: Entry `Fc1ccc2oc(Nc3nnc(Cc4ccncc4)c4ccccc34)nc2c1` please
result: True

query: Entry c1ccc2c(NCC3CCCO3)nnc(Cc3ccncc3)c2c1 (centres unmarked) please
result: False

query: Entry `Fc1ccc2nc(Nc3nnc(Cc4ccncc4)c4ccccc34)oc2c1` please
result: False

query: Entry `CC(=O)c1cccc(Nc2nnc(Cc3ccnc(C(F)(F)F)c3)c3ccccc23)c1` please
result: False

====

Tested on: PK1 neuroblastoma cells exposed to TPrP
Assay: cells
Type: cell-based
Details: PK-1, 96 h, read-out: TPrP EC50
measured-property: pEC50
On this scale, pEC50 is minus log10 of a concentration expressed in M (mol/L).

query: Report pEC50 for `CO/N=C(\C)c1cccc(Nc2nnc(Cc3ccncc3)c3ccccc23)c1` please.
result: 8.70

====

Test system: PK1 neuroblastoma cells exposed to TPrP
Test: cells
Type: cell-based
Settings: PK-1, 96 h, read-out: TPrP EC50
pEC50: −log10 of the molar value.
measured-property: pEC50

Look over these answered cases.
compound	measured-property	reading
CC(c1ccncc1)c1nnc(NCc2cc3ccccc3o2)c2ccccc12 (stereo not drawn) [SR-34645]	pEC50	~6.30
Cc1cc(Cc2nnc(Nc3nc4ccccc4o3)c3ccccc23)ccn1 [SR-33872]	pEC50	< 6.30

Moving on to another compound below.
query: Report pEC50 for Cc1cc(C(C)c2nnc(NCC3COc4ccccc4C3)c3ccccc23)ccn1 (stereo not drawn) [SR-35432] please.
result: < 6.05

====

System: PK1 neuroblastoma cells exposed to TPrP
Experiment: cells
Assay type: cell-based
Settings: PK-1, 96 h, read-out: TPrP EC50
Define the label as True when EC50 is strictly less than 50 nM and as False in all remaining cases.

// below: answered molecules
molecule	label
Cc1cc(C(C)c2nnc(NC3CCc4ccccc43)c3ccccc23)ccn1 (centres unmarked) [SR-35430]	False
Cc1cccc2nc(Nc3nnc(Cc4ccncc4)c4ccccc34)oc12 [SR-32075]	False

query: For this molecule, is EC50 lower than 50 nM? Cc1cc(C(C)c2nnc(Nc3cccc(C4COC4)c3)c3ccccc23)ccn1 (centres unmarked) [SR-35431]
result: False

query: Entry Cc1cc(Cc2nnc(Nc3nc4ccccc4o3)c3ccccc23)cc(C)n1 [SR-32065] please
result: False

query: Entry Cc1cc(C(C)c2nnc(NCc3ccco3)c3ccccc23)ccn1 (centres unmarked) [SR-35433] please
result: False

query: Entry Fc1cccc2nc(Nc3nnc(Cc4ccncc4)c4ccccc34)oc12 [SR-32074] please
result: True

query: Entry CC(=O)c1cccc(Nc2nnc(C(c3ccncc3)C(F)(F)F)c3ccccc23)c1 (centres unmarked) [SR-34646] please
result: False

query: Entry c1ccc(OCCNc2nnc(Cc3ccncc3)c3ccccc23)cc1 [SR-27892] please
result: False

query: Entry COc1cc(Cc2nnc(NCc3cc4ccccc4o3)c3ccccc23)ccn1 [SR-33875] please
result: False

====

Tested on: PK1 neuroblastoma cells exposed to TPrP
Assay: cells
Assay type: cell-based
Conditions: PK-1, 96 h, read-out: TPrP EC50
Define the label as Y when EC50 is strictly less than 200 nM and as N in all remaining cases.

query: For this compound, is EC50 lower than 200 nM? `c1ccc2[nH]c(CNc3nnc(Cc4ccncc4)c4ccccc34)nc2c1`
result: N

query: Entry `COc1cc(Cc2nnc(Nc3cccc(C(C)=O)c3)c3ccccc23)ccn1` please
result: N

====

Test system: PK1 neuroblastoma cells exposed to TPrP
Assay: cells
Type: cell-based
Details: PK-1, 96 h, read-out: TPrP EC50
Classification field. Basis: EC50. Definitions: class 1: < 9 nM; class 2: ≥ 9 nM and < 200 nM; class 3: ≥ 200 nM

molecule	label
CC(=O)c1cccc(Nc2nnc(Cc3cc(C)nc(C)c3)c3ccccc23)c1 [SR-32064]	class 3
CC(=O)c1cccc(Nc2nnc(Cc3ccncc3C(F)(F)F)c3ccccc23)c1 [SR-33876]	class 3

Now for another entry.
query: For the record c1ccc2oc(Nc3nnc(Cc4ccncc4)c4ccccc34)nc2c1 [SR-30010] , report the class its EC50 corresponds to.
result: class 1

====

Test system: PK1 neuroblastoma cells exposed to TPrP
Experiment: cells
Assay type: cell-based
Settings: PK-1, 96 h, read-out: TPrP EC50
Measured log10 of EC50, listed per entry for reference.
Hey, these are logged values: log10 of EC50, nM being the unit before logging.

Look over these answered cases.
compound	reading
c1ccc2c(c1)CC(Nc1nnc(Cc3ccncc3)c3ccccc13)C2	2.30
O=[N+]([O-])c1cccc2oc(Nc3nnc(Cc4ccncc4)c4ccccc34)nc12	0.90

query: For PK1 neuroblastoma cells exposed to TPrP, provide log10 of EC50 of `c1ccc2[nH]c(CNc3nnc(Cc4ccncc4)c4ccccc34)cc2c1` please.
result: 1.70

query: Entry c1ccc2c(c1)CC(Nc1nnc(Cc3ccncc3)c3ccccc13)CO2 (stereo not drawn) please
result: 2.45

query: Entry Cc1cc(C(C)c2nnc(NCC3CCOCC3)c3ccccc23)ccn1 (stereo not drawn) please
result: 1.41

====

Test system: PK1 neuroblastoma cells exposed to TPrP
Assay: cells
Assay type: cell-based
Conditions: PK-1, 96 h, read-out: TPrP EC50
measured-property: EC50 (nM)
Field: numeric (nM). Do not append units.

Look over these answered cases.
compound	measured-property	reading
c1ccc2c(c1)CCC2Nc1nnc(Cc2ccncc2)c2ccccc12 (stereo not shown)	EC50	500
Cc1cccc2oc(Nc3nnc(Cc4ccncc4)c4ccccc34)nc12	EC50	30

Moving on to another compound below.
query: For PK1 neuroblastoma cells exposed to TPrP, provide EC50 of `O=S(=O)(c1cccc(Nc2nnc(Cc3ccncc3)c3ccccc23)c1)N1CCOCC1` please.
result: 9
